All values here come from the supplement of paper PMC6965134.

# Test Name: TIMS collisional cross section (CCS, N2) of the lipid ion; higher = larger ion cross section
# Experimental Conditions: sample type: Liver; ionization mode: positive; one isomer drawn

Compound: CCCCCCCC/C=C\CCCCCCCC(=O)O[C@H](COC(=O)CCCCCCCCCCCCCCC)COC(=O)CCCCCCCCCCCCCCCCCCCC [TG 16:0_18:1_21:0] (ion (formula + adduct): [C58H110O6+NH4] 1+)
Unit Abbreviation: Å²
TIMS collisional cross section: 333

Compound: CCCCC/C=C\C/C=C\CCCCCCCCCCCC(=O)O[C@H](COC(=O)CCCCCCC/C=C\CCCCCCCC)COP(=O)(O)OCCN [PE 18:1_22:2@] (ion (formula + adduct): [C45H84NO8P+H] 1+)
Unit Abbreviation: Å²
TIMS collisional cross section: 291.5

----------
# Test Name: TIMS collisional cross section (CCS, N2) of the lipid ion; higher = larger ion cross section
# Experimental Conditions: sample type: HeLa; ionization mode: positive; one isomer drawn

Molecule: CCCCCCCC/C=C\CCCCCCCCCC(=O)O[C@H](COC(=O)CCCCCCC/C=C\CCCCCCCC)COC(=O)CCCCCCCCCCCCCCCCCCCCC [TG 18:1_20:1_22:0] (ion (formula + adduct): [C63H118O6+NH4] 1+)
TIMS collisional cross section (Å²): 344.7

Molecule: CCCCCC/C=C\CCCCCCCCCC(=O)O[C@H](COC(=O)CCCCCCCCCCCCCCCCC)COP(=O)([O-])OCC[N+](C)(C)C [PC 18:0_18:1] (ion (formula + adduct): [C44H86NO8P+H] 1+)
TIMS collisional cross section (Å²): 294.7

Molecule: CC/C=C\C/C=C\C/C=C\C/C=C\C/C=C\CCCCCC(=O)OC[C@@H](COC(=O)CCCCCCC/C=C\CCCCCC)OC(=O)CCCCCCC/C=C\CCCCCCCC [TG 16:1_18:1_22:5] (ion (formula + adduct): [C59H100O6+NH4] 1+)
TIMS collisional cross section (Å²): 325.9

Molecule: CCCCCCCC/C=C\CCCCCCCC(=O)OC[C@@H](COC(=O)CCCCCCCCCCCCCCC)OC(=O)CCCCCCCCCCCCCCCCC [TG 16:0_18:0_18:1] (ion (formula + adduct): [C55H104O6+NH4] 1+)
TIMS collisional cross section (Å²): 324.4

Molecule: CCCCCC/C=C\CCCCCCCC(=O)O[C@@H](COC(=O)CCCCCCC/C=C\CCCCCCCC)COC(=O)CCCCCCCCCCCCC [TG 14:0_16:1_18:1] (ion (formula + adduct): [C51H94O6+NH4] 1+)
TIMS collisional cross section (Å²): 309.3

Molecule: CCCCCC/C=C/CCCCCCCCCC(=O)OC[C@H](CO)OC(=O)CCCCCCCCCCCCCCC [DG 18:1_16:0_0:0] (ion (formula + adduct): [C37H70O5+NH4] 1+)
TIMS collisional cross section (Å²): 262.87

Molecule: CCCCCCCCCCCCCCCC(=O)OC[C@@H](COC(=O)CCCCCCCCCCCC)OC(=O)CCCCCCCCCCCCCCC [TG 13:0_16:0_16:0] (ion (formula + adduct): [C48H92O6+NH4] 1+)
TIMS collisional cross section (Å²): 305

Molecule: CCCCC/C=C\C/C=C\CCCCCCCC(=O)OC[C@@H](COC(=O)CCCCCCC/C=C\CCCCCCCC)OC(=O)CCCCCCC/C=C\CCCCCCCC [TG 18:1_18:1_18:2] (ion (formula + adduct): [C57H102O6+NH4] 1+)
TIMS collisional cross section (Å²): 324.3

Molecule: CCCCC/C=C\C/C=C\CCCCCCCC(=O)O[C@H](COC(=O)CCCCCCC/C=C\CCCCCCCC)COC(=O)CCCCCCCCC/C=C\CCCCCCCC [TG 18:1_18:2_20:1] (ion (formula + adduct): [C59H106O6+NH4] 1+)
TIMS collisional cross section (Å²): 331.8
